Attribution: ChEMBL document CHEMBL1137264

Reported pKi for target or system Carbonic anhydrase 9 (Homo sapiens), by entry.
pKi: −log10 of the molar value.

input_smiles: Cc1cc(S(N)(=O)=O)c(S(=O)(=O)CC(=O)O)cc1Cl
modifier_sign: =
pKi: 5.26
--
input_smiles: CSc1cc2c(cc1S(N)(=O)=O)S(=O)(=O)NCN2
modifier_sign: =
pKi: 6.86
--
input_smiles: NS(=O)(=O)c1cc(C(=O)NCc2ccccc2)c(Cl)cc1SSc1cc(Cl)c(C(=O)NCc2ccccc2)cc1S(N)(=O)=O
modifier_sign: <
pKi: 5.00
--
input_smiles: Cc1cc(S(N)(=O)=O)c(S/C(=N\NS(=O)(=O)c2ccccc2)c2ccccc2)cc1Cl
modifier_sign: <
pKi: 5.00
